test: LNP size and polydispersity index (PDI) by dynamic light scattering; format: physicochemical; details: LNP with cirRNA (SEQ ID NO: 1); in nm (unit assumed)
Size vs 90: less than gives fulfilled; not less than gives not fulfilled.

Worked cases, answers included:
molecule	class-name
CCCCCCCCC(CCCCCCCC)OC(=O)CCCCCCCN(CCCCCCCCOC(=O)C(CCCCCC)CCCCCCCC)CCOC(=O)NCCN(C)C (centres unmarked) [Lipid 66]	fulfilled
CCCCC/C=C\C/C=C\CCCCCCCCN(CCCCCC(=O)OCC(CCCCCCCC)CCCCCCCCCC)CCOC(=O)NCCN1CCN(C)CC1 (centres unmarked) [Lipid 78]	not fulfilled
CCCCCCCCC(CCCCCCCC)OC(=O)CCCCCCCN(CCCCCCCCOC(=O)C(CCCCCC)CCCCCCCC)CCOC(=O)NCCCn1ccnc1 (centres unmarked) [Lipid 147]	fulfilled
CCCCC/C=C\C/C=C\CCCCCCCCN(CCCCCC(=O)OCCCCCCCCCCC)CCOC(=O)NCc1ncc[nH]1 [Lipid 90]	fulfilled
CCCCC/C=C\C/C=C\CCCCCCCCN(CCCCCCCC/C=C\C/C=C\CCCCC)CCOC(=O)NCCN1CCOCC1 [Lipid 36]	not fulfilled

q: Would you kindly verify if Size of CCCCCCCCCC(=O)OCCCCCCCN(CCCCCCCCOC(=O)C(CCCCCC)CCCCCCCC)CCCOC(=O)NCCCn1ccnc1 (centres unmarked) [Lipid 356] is strictly less than 90?
a: not fulfilled

###

tested on: BALB/C mice; experiment: In vivo expression, whole-body luminescence (IVIS); conditions: cirRNA (SEQ ID NO: 1) LNPs, BALB/C mice
Entries and their measured In vivo Expression (Whole Body) follow.
The answer should be written as a number, with no unit following it.

>>> print(df.to_string())
                                   molecule  system_name     value
0  CCCCCCCCC(CCCCCCCC)OC(=O)CCCCCCCN(CCCCCCCCOC(=O)C(CCCCCC)CCCCCCCC)CCCOC(=O)NCCN1CCCCC1 (stereo not shown)  BALB/C mice  1.35E+08
1  CCCCCCCOC(=O)CCCCCCCCCN(CCCCCCCCCC(=O)OCCCCCCC)CCOC(=O)NCCN(C)C  BALB/C mice  3.33E+05
2  CCCCCCCCCC(=O)OCCCCCCCN(CCCCCCCCOC(=O)C(CCCCCC)CCCCCCCC)CCCOC(=O)NCCCn1ccnc1 (stereo not shown)  BALB/C mice  5.24E+05

Would you kindly look at the next entry?
q: Quote In vivo Expression (Whole Body) reported for CCCCCCCCC(CCCCCC)C(=O)OCCCCCCCCN(CCCCCCCCOC(=O)C(CCCCCC)CCCCCCCC)CCCNCCN(C)C (stereo not shown) please.
a: 1.15E+07

###

tested on: BALB/C mice; test: In vivo expression, whole-body luminescence (IVIS); conditions: cirRNA (SEQ ID NO: 1) LNPs, BALB/C mice
Item-by-item account of In vivo Expression (Whole Body)
Reply with just the number.

In [3]: df
Out[3]:
                                   compound     value
0  CCCCCCCC/C=C\CCCCCCCCN(CCCCCCCCOC(=O)C(CCCCCC)CCCCCCCC)CCOC(=O)NCCN1CCCCC1 (stereo not drawn)  1.34E+08
1  CCCCC/C=C\C/C=C\CCCCCCCCN(CCCCCC(=O)OCC/C=C\CCCCC)CCOC(=O)NCc1ccncc1  5.53E+07

q: Supply measured In vivo Expression (Whole Body) of CCCCC/C=C\C/C=C\CCCCCCCCN(CCCCCC(=O)OCC(CCCCCCCC)CCCCCCCCCC)CCOC(=O)NCCN(C)C (stereo not drawn) in your reply.
a: 9.85E+08

q: // Input: CCCCCCCCCC(=O)OCCCCCCCCN(CCCCCCCCOC(=O)CCCCCCCCC)CCOC(=O)NCCN1CCN(C)CC1 . Output its In vivo Expression (Whole Body) only.
a: 6.61E+05

###

system: Alanine Aminotransferase (ALT); assay: Liver enzyme elevation in serum, ALT; format: in vivo; conditions: cirRNA (SEQ ID NO: 1) LNPs; BALB/C mice; intravenous 0.5 MPK; 2 hours
readout-kind: ALT in Sera (IU/L) 2 hours After 0.5 MPK Injection

In [3]: df
Out[3]:
                                   compound        value
0  CCCCCCCCC(CCCCCC)C(=O)OCCCCCCCCN(CCCCCCCCOC(=O)C(CCCCCC)CCCCCCCC)CCCOC(=O)NCCN(C)C (centres unmarked)  136.67 IU/L
1  CCCCCCCCCC(=O)OCCCCCCCN(CCCCCCCCOC(=O)C(CCCCCC)CCCCCCCC)CCOC(=O)NCCN1CCCCC1 (centres unmarked)   80.33 IU/L
2  CCCCCCCCC(CCCCCCCC)OC(=O)CCCCCCCN(CCCCCCCCOC(=O)C(CCCCCC)CCCCCCCC)CCCOC(=O)NCCN(C)C (centres unmarked)  161.67 IU/L
3  CCCCCCCCC(CCCCCC)C(=O)OCCCCCCCCN(CCCCCCCCOC(=O)C(CCCCCC)CCCCCCCC)CCOC(=O)NCCN(C)C (centres unmarked)   99.33 IU/L
4  CCCCC/C=C\C/C=C\CCCCCCCCN(CCCCCCCC(=O)OC(CCCCCCCC)CCCCCCCC)CCOC(=O)NCCN(C)C   64.50 IU/L
5  CCCCC/C=C\C/C=C\CCCCCCCCN(CCCCCCCC(=O)OC(CCCCCCCC)CCCCCCCC)CCOC(=O)NCCN1CCCC1   58.17 IU/L

q: Give a short answer stating reported ALT in Sera (IU/L) 2 hours After 0.5 MPK Injection for CCCCCCCCCCC(CCCCCCCC)COC(=O)CCCCCN(CCCCCC(=O)OCC(CCCCCCCC)CCCCCCCCCC)CCCOC(=O)NCCN1CCCC1 (centres unmarked) .
a: 158.00 IU/L

q: Write down ALT in Sera (IU/L) 2 hours After 0.5 MPK Injection measured for item CCCCC/C=C\C/C=C\CCCCCCCCN(CCCCCCCC(=O)OC(CCCCCCCC)CCCCCCCC)CCCOC(=O)NCc1ncc[nH]1
a: 128.33 IU/L

q: Respond only with ALT in Sera (IU/L) 2 hours After 0.5 MPK Injection recorded for CCCCCCCCCC(=O)OCCCCCCCN(CCCCCCCCOC(=O)C(CCCCCC)CCCCCCCC)CCOC(=O)NCCN1CCCC1 (centres unmarked)
a: 109.00 IU/L

q: For the compound CCCCCCCCCCC(CCCCCCCC)COC(=O)CCCCCN(CCCCCC(=O)OCC(CCCCCCCC)CCCCCCCCCC)CCCOC(=O)NCCN1CCCCC1 (centres unmarked) , report ALT in Sera (IU/L) 2 hours After 0.5 MPK Injection.
a: 102.00 IU/L

q: Could you please provide reported ALT in Sera (IU/L) 2 hours After 0.5 MPK Injection for CCCCCCCCC(CCCCCC)C(=O)OCCCCCCCCN(CCCCCCCCCCC(=O)OCCCCCC)CCOC(=O)NCCN(C)C (centres unmarked) ? Thanks!
a: 57.07 IU/L

###

test system: RAW 264.7 cells; assay: In vitro toxicity (CellTiter-Glo cell viability), RAW 264.7; type: cell-based; conditions: cirRNA (SEQ ID NO: 1) LNPs; RAW 264.7 cells;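 note: percent of untreated cells luminescence signal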
readout-kind: In vitro Viability RAW
Please state the value followed by its unit.

Example entries and their recorded answers appear below.
                                   compound      system_name            readout_kind  value
0  CCCCCCCC/C=C\CCCCCCCCN(CCCCCCCCOC(=O)C(CCCCCC)CCCCCCCC)CCOC(=O)NCCN1CCCCC1 (stereo not shown)  RAW 264.7 cells  In vitro Viability RAW    80%
1  CCCCC/C=C\C/C=C\CCCCCCCCN(CCCCCCCC(=O)OC(CCCCCCCC)CCCCCCCC)CCOC(=O)NCCCN(C)C  RAW 264.7 cells  In vitro Viability RAW    90%
2  CCCCC/C=C\C/C=C\CCCCCCCCN(CCCCCCCC(=O)OC(CCCCCCCC)CCCCCCCC)CCCOC(=O)NCCN(C)C  RAW 264.7 cells  In vitro Viability RAW   120%

q: Write down In vitro Viability RAW measured for item CCCCCCCCCCC(CCCCCCCC)COC(=O)CCCCCN(CCCCCCCCOC(=O)C(CCCCCC)CCCCCCCC)CCOC(=O)NCCN(C)C (stereo not shown)
a: 104%

###

Listed here: items and their measured Zeta (mV).
test: LNP zeta potential (Zetasizer); format: physicochemical; conditions: LNP with mRNA (SEQ ID NO: 2)
The reply should be a number in mV, with the unit left off.

Please review the entries below; each comes with its answer.
In [3]: df
Out[3]:
                                   compound   value
0  CCCCCCCCCCC(CCCCCCCC)COC(=O)CCCCCN(CCCCCC(=O)OCC(CCCCCCCC)CCCCCCCCCC)CCOC(=O)NCCN1CCCC1 (stereo not shown) [Lipid 168]  0.8152
1  CCCCCCCCCC(=O)OCCCCCCCN(CCCCCCCCOC(=O)C(CCCCCC)CCCCCCCC)CCOC(=O)NCCN1CCCCC1 (stereo not shown) [Lipid 196]  −2.076
2  CCCCC/C=C\CCOC(=O)CCCCCCCN(CCCCCCCC(=O)OCC/C=C\CCCCC)CCOC(=O)CCCN(C)C [Lipid C, reference compound]   8.776
3  CCCCCCCCC(CCCCCCCC)OC(=O)CCCCCCCN(CCCCCCCCOC(=O)C(CCCCCC)CCCCCCCC)CCCOC(=O)NCCN(C)C (stereo not shown) [Lipid 344]   1.967

q: Annotate the compound CCCCC/C=C\C/C=C\CCCCCCCCN(CCCCCCCC/C=C\CCCCCCCC)CCOC(=O)NCc1ncc[nH]1 [Lipid 68] with its measured Zeta (mV).
a: 5.641

q: State, in one line, measured Zeta (mV) of CCCCCCCCC(CCCCCC)C(=O)OCCCCCCCCN(CCCCCCCCCCC(=O)OCCCCCC)CCOC(=O)NCCN(C)C (stereo not shown) [Lipid 43]
a: 12.6

q: Identify measured Zeta (mV) associated with CCCCCCCCC(CCCCCC)C(=O)OCCCCCCCCN(CCCCCCCCOC(=O)C(CCCCCC)CCCCCCCC)CCCOC(=O)NCCN1CCCCCC1 (stereo not shown) [Lipid 383]
a: −13.05
